Here the recorded peptide exchange yield is given for each entry.
Target: T1, HLA-B*08:01 (human)
T1 construct: MHC monomer first loaded with a UV-sensitive peptide that is cleaved by UV light and exchanged for the test peptide
Assay: UV peptide exchange ELISA

Worked examples, 3 binders total:
FTLLRRLSL [FTLLRRLSL (SEQ ID NO: 19)]	50 to 75%
DADLREQAL [DADLREQAL (SEQ ID NO: 143)]	20 to 50%
GAGLRITAPL [GAGLRITAPL (SEQ ID NO: 111)]	20 to 50%

Kindly consider the entry below.
Inquiry: Tell me measured peptide exchange yield for DAMTKHTL [DAMTKHTL (SEQ ID NO: 110)] please.
Reply text: 50 to 75%
